# assaySystem: T1, BSA (bovine, UniProt P02769 25-607)
# T1 construct: also called bovine serum albumin
# T1 sequence (P02769 25-607 limits assumed): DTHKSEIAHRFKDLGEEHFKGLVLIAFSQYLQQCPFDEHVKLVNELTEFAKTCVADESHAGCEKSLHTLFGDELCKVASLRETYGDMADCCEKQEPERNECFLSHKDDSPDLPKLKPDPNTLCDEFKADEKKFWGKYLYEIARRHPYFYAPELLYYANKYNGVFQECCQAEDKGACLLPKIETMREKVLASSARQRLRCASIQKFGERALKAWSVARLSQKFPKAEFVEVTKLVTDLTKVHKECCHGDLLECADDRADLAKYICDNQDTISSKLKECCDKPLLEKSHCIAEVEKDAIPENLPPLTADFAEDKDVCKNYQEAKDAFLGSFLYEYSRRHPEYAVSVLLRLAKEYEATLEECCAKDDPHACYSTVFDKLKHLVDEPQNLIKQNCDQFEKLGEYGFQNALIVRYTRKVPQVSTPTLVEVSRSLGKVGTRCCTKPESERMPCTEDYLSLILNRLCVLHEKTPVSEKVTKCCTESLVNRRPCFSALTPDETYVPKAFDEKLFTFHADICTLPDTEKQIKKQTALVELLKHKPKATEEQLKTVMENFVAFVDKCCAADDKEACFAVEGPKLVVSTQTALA
# assayProtocol: ELISA
experimentalReadout: binding result

>  <binder>
TP-3F1 Fab (Fab, V domains shown, Human Fab from HuCal Gold, expressed in E. coli TG1) VH: QVQLVQSGAEVKKPGESLKISCKGSGYSFTDYWIGWVRQMPGKGLEWMGIIQPSDSDTNYSPSFQGQVTISADKSISTAYLQWSSLKASDTAMYYCARFMWWGKYDSGFDVWGQGTLVTVSS VL: DIELTQPPSVSVAPGQTARISCSGDNIGSYFASWYQQKPGQAPVLVIYDDSNRPSGIPERFSGSNSGNTATLTISGTQAEDEADYYCEGSNVFGGGTKLTVLG

>  <result>
no binding

$$$$
>  <binder>
TP-2E5 Fab (Fab, V domains shown, Human Fab from HuCal Gold, expressed in E. coli TG1) VH: QVQLQQSGPGLVKPSQTLSLTCAISGDSVSSNSAAWSWIRQSPGRGLEWLGMIFYRSKWNNDYAVSVKSRITINPDTSKNQFSLQLNSVTPEDTAVYYCARVNANGYYAYVDLWGQGTLVTVSS VL: DIQMTQSPSSLSASVGDRVTITCRASQPIYNSLSWYQQKPGKAPKLLIYGVSNLQSGVPSRFSGSGSGTDFTLTISSLQPEDFAVYYCLQVDNLPITFGQGTKVEIKR

>  <result>
no binding

$$$$
>  <binder>
TP-2G9 Fab (Fab, V domains shown, Human Fab from HuCal Gold, expressed in E. coli TG1) VH: QVQLVESGGGLVQPGGSLRLSCAASGFTFNSYAMTWVRQAPGKGLEWVSAIKSDGSNTYYADSVKGRFTISRDNSKNTLYLQMNSLRAEDTAVYYCARNDSGWFDVWGQGTLVTVSS VL: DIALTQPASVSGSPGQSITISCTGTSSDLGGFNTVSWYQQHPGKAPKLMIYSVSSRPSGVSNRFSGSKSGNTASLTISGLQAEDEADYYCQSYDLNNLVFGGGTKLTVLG

>  <result>
no binding

$$$$
